# Tested on: HCT-15
# assayExplanation: Growth inhibitory activity against colon cancer HCT-15 cell line was determined
# Format: functional
# testParameters: Homo sapiens
compounds and their reported log10 GI50
Scale: log10; quantity: GI50; unit before log: nM

Recorded log10 GI50, per entry:
chemicalStructure | log10 GI50
O=C(Oc1ccccc1Cl)c1ccccc1Nc1ccnc(C(F)(F)F)c1 | 2.34
O=C(Oc1ccc(Cl)cc1)c1ccccc1Nc1ccnc(C(F)(F)F)c1 | 3.32
CCOC(=O)CNC(=O)c1ccccc1Nc1ccnc(C(F)(F)F)c1 | 4.46
COc1cccc(OC(=O)c2ccccc2Nc2ccnc(C(F)(F)F)c2)c1 | 3.45
O=C(Oc1cccnc1)c1ccccc1Nc1ccnc(C(F)(F)F)c1 | 2.46
O=C(Oc1ccc(Cl)cc1Cl)c1ccccc1Nc1ccnc(C(F)(F)F)c1 | 3.34
O=C(Oc1cccc(Cl)c1)c1ccccc1Nc1ccnc(C(F)(F)F)c1 | 3.57

Now consider the entry below.
Please look at this compound and report its log10 GI50: O=C(Oc1c(Cl)cc(Cl)cc1Cl)c1ccccc1Nc1ccnc(C(F)(F)F)c1
3.43
